# test.summary: Half life in dog at 1 mg/kg
# Assay type: ADME, organism-based, Canis lupus familiaris
# conditions: in vivo
reported.endpoint: half-life (min)
Output spec: scalar in min, unitless text.

Q: // query half-life value for entry Cc1cc(-c2nncc3c(C(C)(C)C)c(OCc4ncnn4C)nn23)no1
A: 30

* * *

# Tested on: MDA-MB-231
# test.summary: Cytotoxicity against human MDA-MB-231 cells assessed as reduction in cell viability at 100 uM by MTT assay
# Assay type: functional, cell-based
reported.endpoint: IC50 (µM)
Write the value in µM as a bare number.

Q: Record lookup: for MDA-MB-231, what IC50 belongs to O=c1[nH]c(=O)n([C@H]2C[C@H](O)[C@@H](CO)O2)cc1F [FLOXURIDINE] ?
A: 38

* * *

# test.summary: Oral bioavailability in rhesus monkey at 21 mg/kg
# Assay type: ADME, organism-based, Macaca mulatta
# conditions: in vivo
reported.endpoint: bioavailability (%)
Record the value in %, omitting the unit from your answer.

Q: Could you tell me which bioavailability is on file for COCC(COC)Nc1nc(C)nc2c(-c3ccc(Cl)cc3Cl)c(C)nn12 ?
A: 50

* * *

# experimental.system: Tyrosinase (Homo sapiens)
# Sequence (P14679 whole entry): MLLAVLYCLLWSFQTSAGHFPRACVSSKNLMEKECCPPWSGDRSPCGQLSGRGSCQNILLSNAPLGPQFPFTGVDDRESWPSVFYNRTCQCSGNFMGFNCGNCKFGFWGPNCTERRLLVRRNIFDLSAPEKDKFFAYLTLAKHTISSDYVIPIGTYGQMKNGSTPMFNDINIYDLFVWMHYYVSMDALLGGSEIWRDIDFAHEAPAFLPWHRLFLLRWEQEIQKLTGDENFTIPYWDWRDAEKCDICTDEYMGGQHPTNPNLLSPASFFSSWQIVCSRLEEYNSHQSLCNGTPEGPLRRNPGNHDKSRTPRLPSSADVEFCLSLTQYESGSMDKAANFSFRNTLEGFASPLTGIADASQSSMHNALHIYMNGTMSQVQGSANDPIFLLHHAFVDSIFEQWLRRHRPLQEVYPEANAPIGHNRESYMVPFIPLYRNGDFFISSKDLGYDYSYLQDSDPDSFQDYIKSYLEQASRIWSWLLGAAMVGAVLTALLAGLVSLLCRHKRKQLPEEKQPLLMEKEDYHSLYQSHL
reported.endpoint: pIC50
Bear in mind: pIC50 is minus log10 of a mol/L concentration; give just that figure.

Q: For CCOc1ccc(S(=O)(=O)N[C@@H](CO)CC(C)C)cc1-c1nnc2c(n1)c(C)nn2C , what is its reported pIC50?
A: 4.55

Q: Please look up its pIC50: CCOc1ccc(S(=O)(=O)N[C@H](C)CO)cc1-c1nnc2c(n1)c(C)nn2C
A: 4.51

Source of measurements: ChEMBL document CHEMBL5241085
